The values you see were collected from ChEMBL document CHEMBL1275272.

Tested on: Aspergillus fumigatus
Assay: Antifungal activity against Aspergillus fumigatus after 16 to 18 hrs by serial dilution method
Type: functional
Conditions: Aspergillus fumigatus
reported endpoint: MIC (µg/mL)

> print(dat)
                              sample.smiles  result.units  recorded.value
1  Cc1ccccc1OCc1ccccc1-c1nn(CN2CCOCC2)c(=S)o1         µg/mL            12.5
2  Clc1ccc(CSc2nnc(-c3ccccc3COc3ccc(Cl)cc3)o2)cc1         µg/mL            12.5
3  FC(F)(F)c1cccc(NCn2nc(-c3ccccc3COc3ccc(Cl)cc3)oc2=S)c1         µg/mL            6.25
4  Clc1ccc(OCc2ccccc2-c2nnc(-c3cccc4ncccc34)o2)cc1         µg/mL              25
5  Cc1cccc(OCc2ccccc2-c2nn(CNc3ccc(Cl)cc3C(=O)C(F)(F)F)c(=S)o2)c1         µg/mL              25
6  Cc1ccc(Cl)c(NCn2nc(-c3ccccc3COc3ccccc3C)oc2=S)c1         µg/mL              25
7  Cc1cccc(OCc2ccccc2-c2nnc(SCc3ccc(Cl)cc3)o2)c1         µg/mL            12.5
8          CCSc1nnc(-c2ccccc2COc2ccccc2C)o1         µg/mL              25

[I] COc1cc(-c2nnc(-c3ccccc3COc3ccccc3C)o2)cc(OC)c1OC
[II] Cc1ccccc1OCc1ccccc1-c1nnc(-c2cccc(Br)c2)o1
Between I and II , whose measured MIC reads higher? Let me know the label of the one you choose. II
